Provenance of the data: ChEMBL document CHEMBL4052830

target: Neuronal acetylcholine receptor subunit alpha-7 (Homo sapiens, UniProt P36544); experiment: Agonist activity at human alpha7 nAChR expressed in HEK293 cells co-expressing Ric-3/NACHO assessed as induction of calcium mobilization measured up to 90 secs in presence of PNU-120596 by FLIPR assay
Sequence (P36544 whole entry): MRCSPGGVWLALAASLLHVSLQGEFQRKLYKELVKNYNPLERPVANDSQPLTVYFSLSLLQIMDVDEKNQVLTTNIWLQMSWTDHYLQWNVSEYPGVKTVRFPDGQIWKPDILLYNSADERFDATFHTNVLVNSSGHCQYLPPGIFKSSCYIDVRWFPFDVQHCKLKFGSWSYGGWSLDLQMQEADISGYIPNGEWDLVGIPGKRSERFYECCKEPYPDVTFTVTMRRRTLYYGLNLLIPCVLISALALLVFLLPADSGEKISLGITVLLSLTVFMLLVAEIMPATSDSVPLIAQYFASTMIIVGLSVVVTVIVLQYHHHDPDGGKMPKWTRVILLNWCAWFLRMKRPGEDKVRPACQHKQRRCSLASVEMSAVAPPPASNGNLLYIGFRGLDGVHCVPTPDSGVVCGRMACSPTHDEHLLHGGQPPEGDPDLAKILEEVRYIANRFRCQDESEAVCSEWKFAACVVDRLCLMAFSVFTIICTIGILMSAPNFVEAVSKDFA
Please respond with reported EC50 for every item in the list.

>>> result("C[N+]12CCC[C@H]1c1cc3c(cc1CC2)OCO3 (some centres undefined)")
"5.4 µM"
>>> result("CCC[N+]1(C)CCc2cc(OC)c(OC)cc2C1 (centres undefined)")
"> 100 µM"
>>> result("COc1cc2c(cc1OC)[C@H]1CCCN1CC2")
"> 100 µM"
>>> result("COc1cc2c(cc1OC)CN(C)CC2")
"> 100 µM"
>>> result("COc1ccc2c(c1)CC[N+](C)(C)C2")
"4.4 µM"
>>> result("COc1ccc(CC2c3cc(OC)c(OC)cc3CCN2C)cc1OC (centres undefined)")
"> 100 µM"
>>> result("CN1CCc2cc3c(cc2C1)OCO3")
"> 100 µM"
>>> result("COc1cc2c(cc1O)CN(C)CC2")
"> 100 µM"
>>> result("C=CC[N+]1(C)CCc2cc(OC)c(OC)cc2C1 (centres undefined)")
"> 100 µM"
>>> result("COc1cc2c(cc1OC)[C@@H]1CCC[N+]1(C)CC2 (some centres undefined)")
"6.5 µM"

Your task in this section: give EC50 for each listed record.
1. COc1ccc2c(c1)CCN(C)C2
2. COc1cc2c(cc1O)C[N+](C)(C)CC2
3. COc1ccc2c(c1)CC[N+]1(C)CCCC21 (centres undefined)
4. COc1cc2c(cc1OC)[C@H]1CCC[N+]1(C)CC2 (some centres undefined)
5. COc1cc2c(cc1OC)C1CCC[N+]1(C)CC2 (centres undefined)

Response line:
["> 100 µM", "0.99 µM", "5.2 µM", "5.1 µM", "7.5 µM"]

Your task in this section: give EC50 for each listed record.
1. COc1cc2c(cc1OC)C[N+](C)(C)CC2
2. C[N+]1(C)CCc2cc3c(cc2C1)OCO3
3. COc1cc2c(cc1OC)C1CCCN1CC2 (centres undefined)
4. C[N+]12CCC[C@@H]1c1cc3c(cc1CC2)OCO3 (some centres undefined)
5. C[N+]12CCCC1c1cc3c(cc1CC2)OCO3 (centres undefined)
6. C[N+]12CCCC1c1ccccc1CC2 (centres undefined)

Response line:
1. 9 µM
2. 2.6 µM
3. > 100 µM
4. 1.6 µM
5. 2.6 µM
6. 2.2 µM
